- Assay Name: gradient 5% acetonitrile 3 min, to 50% in 2 min, to 85% in 15 min, held 3 min, 100 µL/min
- Protocol Conditions: column: Zorbax Extend-C18 2.1 x 50 mm; eluents: water / acetonitrile, 0.1% formic acid
Measured Endpoint: RP-LC retention time (s)

// known answers, use as guide
Q) Could you tell me which RP-LC retention time is on file for "CCc1nc(-c2ccc3c(c2)CCN3C(=O)COc2ccc(OC)cc2)no1" ?
A) 1000

Q) Same question for "CCCN1C(=O)c2cc(S(=O)(=O)N3CCCCCC3)ccc2Oc2cccnc21" please.
A) 1180

Q) Same question for "Cc1cccc(-c2noc(-c3ccc(=O)n(Cc4cccnc4)c3)n2)c1" please.
A) 747

Q) Same question for C/C=C(\CCC1NCCc2c1[nH]c1ccccc21)[Si](C)(C)C (stereo not given) please.
A) 815

Q) Same question for Cc1cc(C)cc(NC(=O)N2CC(CN(C)C)C3(CCCCC3)C2)c1 (stereo not given) please.
A) 695

[I] O=C(NCC1(N2CCOCC2)CCOC1)Nc1cc(F)ccc1F (stereo not given)
[II] Cn1nccc1-c1cccc(-c2noc(Cc3ccccc3F)n2)c1
Q) // select label with min value of measured RP-LC retention time from [ I , II ] Please respond with the label that marks your chosen entry.
A) I

[I] COc1ccc(OC)c(NC(=O)Cn2cccc2-c2nc(-c3ccc4c(c3)OCO4)no2)c1
[II] CCN1CCC(N(Cc2ccc3c(c2)OCO3)C(=O)Nc2ccc(OC)cc2OC)CC1
Q) Sorting by RP-LC retention time in descending order, would I or II appear first? Please respond with the label that marks your chosen entry.
A) I
